- ASSAYED_SYSTEM: human GlyT1c transporter (Homo sapiens, UniProt P48067)
- Construct: the uptake assay names the line hGlyT1c_5_CHO
- Sequence (P48067 whole entry): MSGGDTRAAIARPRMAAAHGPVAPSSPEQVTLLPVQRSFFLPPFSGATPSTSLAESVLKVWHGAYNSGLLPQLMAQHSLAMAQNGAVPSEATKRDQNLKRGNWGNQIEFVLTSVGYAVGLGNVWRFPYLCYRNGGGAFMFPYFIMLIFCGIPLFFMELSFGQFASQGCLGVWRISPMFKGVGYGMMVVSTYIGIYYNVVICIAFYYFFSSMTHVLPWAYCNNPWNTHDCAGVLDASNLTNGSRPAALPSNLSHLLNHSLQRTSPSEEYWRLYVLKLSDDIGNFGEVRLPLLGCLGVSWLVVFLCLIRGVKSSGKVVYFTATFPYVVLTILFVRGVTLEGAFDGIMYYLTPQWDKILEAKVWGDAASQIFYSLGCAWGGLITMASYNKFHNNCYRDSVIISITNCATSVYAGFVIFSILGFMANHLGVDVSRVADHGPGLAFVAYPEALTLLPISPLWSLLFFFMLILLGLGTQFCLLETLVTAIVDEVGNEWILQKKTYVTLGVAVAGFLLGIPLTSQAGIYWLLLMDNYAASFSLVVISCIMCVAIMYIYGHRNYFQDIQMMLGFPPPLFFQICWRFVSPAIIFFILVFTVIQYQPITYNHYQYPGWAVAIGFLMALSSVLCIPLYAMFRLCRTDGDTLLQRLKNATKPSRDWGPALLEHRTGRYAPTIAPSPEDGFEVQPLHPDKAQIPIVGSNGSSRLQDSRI
- PROTOCOL_TEXT: Radioligand binding assay using recombinant CHO cell membranes expressing human GlyT1
- SETUP_CONDITIONS: read-out: radioligand binding Kiapp
pKi: −log10 of the molar value.
Exercise: state measured pKi for each of the compounds provided.

Here are 3 compounds together with their reported answers.
- COMPOUND: "CCCS(=O)(=O)NCc1ccc2c(c1)C(Cc1cccc(F)c1)NCCC2 (centres unmarked)"
  ASSAYED_SYSTEM: "human GlyT1c transporter (Homo sapiens, UniProt P48067)"
  ENDPOINT_VALUE: "≥ 6.00"
- COMPOUND: "O=S(=O)(CC1CC1)NCCOc1cc2c(cc1F)CCCNC2Cc1ccccc1 (centres unmarked)"
  ASSAYED_SYSTEM: "human GlyT1c transporter (Homo sapiens, UniProt P48067)"
  ENDPOINT_VALUE: "≥ 7.00"
- COMPOUND: "CCS(=O)(=O)NCCOc1ccc2c(c1)C(Cc1ccccc1)NCCO2 (centres unmarked)"
  ASSAYED_SYSTEM: "human GlyT1c transporter (Homo sapiens, UniProt P48067)"
  ENDPOINT_VALUE: "≥ 5.00"

Please state pKi for every compound in the list that follows.
1. Cn1cc(S(=O)(=O)NCc2ccc3c(c2)C(Cc2cccc(F)c2)NCCC3)cn1 (centres unmarked)
2. Cn1cnc(S(=O)(=O)NCCOc2ccc3c(c2)C(Cc2ccccc2)NCCO3)c1 (centres unmarked)
3. O=S(=O)(CC1CC1)NCCOc1ccc2c(c1)C(Cc1ccc(Cl)cc1)NCCC2 (centres unmarked)
4. CCCS(=O)(=O)NCCOc1ccc2c(c1)C(Cc1ccccc1)NCCC2 (centres unmarked)
5. O=S(=O)(CC1CC1)NCCOc1ccc2c(c1)C(Cc1ccccc1)NCCO2 (centres unmarked)
6. CCCS(=O)(=O)NCCOc1ccc2c(c1)C(Cc1cccc(F)c1)NCCC2 (centres unmarked)
7. CCCS(=O)(=O)NCCOc1ccc2c(c1)C(Cc1ccc(Cl)cc1)NCCC2 (centres unmarked)

## Result
1. ≥ 8.00
2. ≥ 7.00
3. ≥ 6.00
4. ≥ 7.00
5. ≥ 6.00
6. ≥ 7.00
7. ≥ 6.00

Please state pKi for every compound in the list that follows.
1. CCS(=O)(=O)NCCOc1ccc2c(c1)C(Cc1ccccc1)NCCC2 (centres unmarked)
2. CCS(=O)(=O)NCCOc1ccc2c(c1)C(Cc1cccc(F)c1)NCCC2 (centres unmarked)
3. O=S(=O)(NCCOc1ccc2c(c1)C(Cc1ccccc1)NCCO2)C1CCC1 (centres unmarked)
4. CCS(=O)(=O)NCc1cc2c(cc1F)CCCNC2Cc1ccccc1.O=C(O)C(F)(F)F (centres unmarked)
5. Cn1cnc(S(=O)(=O)NCc2ccc3c(c2)C(C(C)(C)c2ccccc2)NCCO3)c1 (centres unmarked)
6. CN1CCCc2ccc(CNS(=O)(=O)c3cn(C)cn3)cc2C1Cc1ccccc1 (centres unmarked)

## Result
≥ 6.00
≥ 6.00
≥ 6.00
≥ 6.00
≥ 5.00
≥ 7.00

Please state pKi for every compound in the list that follows.
1. O=S(=O)(CC1CC1)NCc1ccc2c(c1)C(Cc1cccc(F)c1)NCCC2 (centres unmarked)
2. CCS(=O)(=O)NCCOc1cc2c(cc1F)CCCNC2Cc1ccccc1 (centres unmarked)
3. CCS(=O)(=O)NCc1ccc2c(c1)C(Cc1ccc(Cl)cc1)NCCC2 (centres unmarked)
4. CCS(=O)(=O)NCc1ccc2c(c1)C(Cc1cccc(F)c1)NCCC2 (centres unmarked)
5. O=S(=O)(NCc1ccc2c(c1)C(Cc1ccccc1)NCCC2)C1CCC1 (centres unmarked)
6. Cn1cnc(S(=O)(=O)NCc2ccc3c(c2)C(Cc2ccc(Cl)cc2)NCCC3)c1 (centres unmarked)
7. Cn1cc(S(=O)(=O)NCCOc2ccc3c(c2)C(Cc2cccc(F)c2)NCCC3)cn1 (centres unmarked)

## Result
≥ 7.00
≥ 6.00
≥ 5.00
≥ 6.00
≥ 7.00
≥ 6.00
≥ 8.00

Please state pKi for every compound in the list that follows.
1. O=S(=O)(CC1CC1)NCCOc1ccc2c(c1)C(Cc1ccccc1)NCCC2 (centres unmarked) [Example 13]
2. CN1CCCc2ccc(OCCNS(=O)(=O)c3cnn(C)c3)cc2C1Cc1ccccc1 (centres unmarked)

## Result
1. ≥ 7.00
2. ≥ 8.00

Please state pKi for every compound in the list that follows.
1. Cn1cnc(S(=O)(=O)NCc2ccc3c(c2)C(Cc2ccccc2)NCCC3)c1 (centres unmarked)
2. CCCN1CCCc2ccc(CNS(=O)(=O)c3cn(C)cn3)cc2C1Cc1ccccc1 (centres unmarked)
3. CN1CCCc2ccc(OCCNS(=O)(=O)c3cn(C)cn3)cc2C1Cc1ccccc1 (centres unmarked)
4. Cn1cnc(S(=O)(=O)NCc2cc3c(cc2F)CCCNC3Cc2ccccc2)c1 (centres unmarked)
5. O=S(=O)(CC1CC1)NCCOc1ccc2c(c1)C(Cc1ccccc1)NCCC2 (centres unmarked) [Example 4]
6. Cn1cnc(S(=O)(=O)NCCOc2ccc3c(c2)C(Cc2ccccc2)NCCC3)c1 (centres unmarked)

## Result
1: ≥ 8.00; 2: ≥ 8.00; 3: ≥ 8.00; 4: ≥ 8.00; 5: ≥ 7.00; 6: ≥ 7.00

Please state pKi for every compound in the list that follows.
1. O=S(=O)(CC1CC1)NCc1ccc2c(c1)C(Cc1ccc(Cl)cc1)NCCC2 (centres unmarked)
2. Cn1cnc(S(=O)(=O)NCCOc2ccc3c(c2)C(Cc2cccc(F)c2)NCCC3)c1 (centres unmarked)
3. CCN1CCCc2ccc(CNS(=O)(=O)c3cn(C)cn3)cc2C1Cc1ccccc1 (centres unmarked)
4. CCCS(=O)(=O)NCCOc1ccc2c(c1)C(Cc1ccccc1)NCCO2 (centres unmarked)

## Result
1. ≥ 5.00
2. ≥ 8.00
3. ≥ 7.00
4. ≥ 6.00

###

- PROTOCOL_TEXT: Metabolic stability in human liver microsomes (microsomal clearance)
- Format: in vitro ADME
- SETUP_CONDITIONS: human liver microsomes 0.25 mg protein/ml, 0.5 μM test substance, NADPH 1.0 mM, pH 7.4, 37° C.
MEASURED_PARAMETER: human mCl

Here are 5 compounds together with their reported answers.
- COMPOUND: "CCCS(=O)(=O)NCCOc1ccc2c(c1)C(Cc1ccccc1)NCCO2 (stereo not drawn)"
  human mCl: "≦100 μl/min/mg"
- COMPOUND: "O=S(=O)(NCCOc1ccc2c(c1)C(Cc1ccccc1)NCCO2)C1CCC1 (stereo not drawn)"
  human mCl: "≦100 μl/min/mg"
- COMPOUND: "CCS(=O)(=O)NCc1cc2c(cc1F)CCCNC2Cc1ccccc1.O=C(O)C(F)(F)F (stereo not drawn)"
  human mCl: "≦50 μl/min/mg"
- COMPOUND: "CCS(=O)(=O)NCCOc1ccc2c(c1)C(Cc1ccccc1)NCCO2 (stereo not drawn)"
  human mCl: "≦50 μl/min/mg"
- COMPOUND: "O=S(=O)(CC1CC1)NCCOc1cc2c(cc1F)CCCNC2Cc1ccccc1 (stereo not drawn)"
  human mCl: "≦50 μl/min/mg"

## Task Respond only with human mCl recorded for Cn1cnc(S(=O)(=O)NCCOc2cc3c(cc2F)CCCNC3Cc2ccccc2)c1 (stereo not drawn)
## Result ≦50 μl/min/mg

###

- PROTOCOL_TEXT: Metabolic stability in human liver microsomes (microsomal clearance)
- Type: in vitro ADME
- SETUP_CONDITIONS: human liver microsomes 0.25 mg protein/ml, 0.5 μM test substance, NADPH 1.0 mM, pH 7.4, 37° C.

- MOLECULE: "CCS(=O)(=O)NCCOc1cc2c(cc1F)CCCNC2Cc1ccccc1 (stereo not shown) [Example 43]"
  human mCl: "≦50 μl/min/mg"
- MOLECULE: "O=C(O)/C=C/C(=O)O.O=S(=O)(CC1CC1)NCc1cc2c(cc1F)CCCNC2Cc1ccccc1 (stereo not shown) [Example 44]"
  human mCl: "≦50 μl/min/mg"
- MOLECULE: "Cn1cnc(S(=O)(=O)NCCOc2ccc3c(c2)C(Cc2ccccc2)NCCO3)c1 (stereo not shown) [Example 48]"
  human mCl: "≦50 μl/min/mg"

###

- ASSAYED_SYSTEM: human GlyT1c transporter (Homo sapiens, UniProt P48067)
- Construct: expressed in transfected cells; host or cells: recombinant CHO cells (membranes); the uptake assay names the line hGlyT1c_5_CHO
- PROTOCOL_TEXT: Radioligand binding assay using recombinant CHO cell membranes expressing human GlyT1
- SETUP_CONDITIONS: read-out: radioligand binding Kiapp
Structures can show the parent of a compound that is named as a salt.
Exercise: state measured Ki for each of the compounds provided.

Here are 8 compounds together with their reported answers.
- COMPOUND: "CCCS(=O)(=O)NCc1ccc2c(c1)C(Cc1ccc(Cl)cc1)NCCC2 (centres unmarked)"
  Ki: "≤ 1000 nM"
- COMPOUND: "CCCS(=O)(=O)NCc1ccc2c(c1)C(Cc1ccccc1)NCCC2 (centres unmarked)"
  Ki: "≤ 1000 nM"
- COMPOUND: "O=C(O)/C=C/C(=O)O.O=S(=O)(CC1CC1)NCc1cc2c(cc1F)CCCNC2Cc1ccccc1 (centres unmarked)"
  Ki: "≤ 100 nM"
- COMPOUND: "COc1ccc2c(c1)C(Cc1ccccc1)NCCC2 (centres unmarked)"
  Ki: "> 10000 nM"
- COMPOUND: "COc1ccc2c(c1)C(C1(c3ccc(Cl)cc3)CCC1)NCCO2 (centres unmarked) [Example 5, hydrochloride]"
  Ki: "≤ 10000 nM"
- COMPOUND: "Cn1cc(S(=O)(=O)NCc2ccc3c(c2)C(Cc2ccccc2)NCCC3)cn1 (centres unmarked)"
  Ki: "≤ 10 nM"
- COMPOUND: "CCS(=O)(=O)NCc1ccc2c(c1)C(Cc1ccccc1)NCCC2 (centres unmarked)"
  Ki: "≤ 10000 nM"
- COMPOUND: "Cn1cnc(S(=O)(=O)NCc2ccc3c(c2)C(Cc2cccc(F)c2)NCCC3)c1 (centres unmarked)"
  Ki: "≤ 10 nM"

Please state Ki for every compound in the list that follows.
1. Cn1cc(S(=O)(=O)NCc2ccc3c(c2)C(Cc2ccc(Cl)cc2)NCCC3)cn1 (centres unmarked)
2. CN(Cc1ccc2c(c1)C(Cc1ccccc1)NCCC2)S(=O)(=O)c1cn(C)cn1 (centres unmarked)
3. CCS(=O)(=O)NCCOc1ccc2c(c1)C(Cc1ccc(Cl)cc1)NCCC2 (centres unmarked)
4. Cn1cnc(S(=O)(=O)NCCOc2cc3c(cc2F)CCCNC3Cc2ccccc2)c1 (centres unmarked)
5. O=S(=O)(CC1CC1)NCc1ccc2c(c1)C(Cc1ccccc1)NCCC2 (centres unmarked)

## Result
1: ≤ 100 nM; 2: ≤ 100 nM; 3: ≤ 10000 nM; 4: ≤ 100 nM; 5: ≤ 100 nM

Please state Ki for every compound in the list that follows.
1. O=S(=O)(NCc1ccc2c(c1)C(Cc1ccc(Cl)cc1)NCCC2)C1CCC1 (centres unmarked)
2. Cn1cc(S(=O)(=O)NCCOc2ccc3c(c2)C(Cc2ccccc2)NCCC3)cn1 (centres unmarked)
3. O=S(=O)(CC1CC1)NCCOc1ccc2c(c1)C(Cc1cccc(F)c1)NCCC2 (centres unmarked)
4. CCN(Cc1ccc2c(c1)C(Cc1ccccc1)NCCC2)S(=O)(=O)c1cn(C)cn1 (centres unmarked)

## Result
1. ≤ 1000 nM
2. ≤ 10 nM
3. ≤ 100 nM
4. ≤ 100 nM
